// provenance: ChEMBL document CHEMBL2218924

# Tgt: Myotonin-protein kinase (Homo sapiens) (UniProt Q09013)
# Sequence (Q09013 whole entry): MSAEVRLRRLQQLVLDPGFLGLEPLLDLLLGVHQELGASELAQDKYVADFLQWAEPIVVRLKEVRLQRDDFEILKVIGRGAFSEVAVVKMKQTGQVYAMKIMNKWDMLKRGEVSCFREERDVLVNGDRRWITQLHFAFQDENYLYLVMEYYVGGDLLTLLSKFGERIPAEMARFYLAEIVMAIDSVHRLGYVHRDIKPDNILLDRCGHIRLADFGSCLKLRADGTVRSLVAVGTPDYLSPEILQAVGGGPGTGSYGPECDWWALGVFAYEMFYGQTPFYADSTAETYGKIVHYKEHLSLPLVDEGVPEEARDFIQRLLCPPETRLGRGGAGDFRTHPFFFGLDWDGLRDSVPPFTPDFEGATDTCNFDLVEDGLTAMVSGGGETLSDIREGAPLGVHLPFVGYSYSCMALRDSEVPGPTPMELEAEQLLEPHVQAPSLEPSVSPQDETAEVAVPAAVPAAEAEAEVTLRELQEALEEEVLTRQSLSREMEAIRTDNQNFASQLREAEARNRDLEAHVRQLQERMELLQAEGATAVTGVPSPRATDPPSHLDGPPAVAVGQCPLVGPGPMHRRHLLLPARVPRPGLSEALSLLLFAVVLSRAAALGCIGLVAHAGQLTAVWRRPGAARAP
# Condition Notes: at 1 µM
Provide the reported residual activity of each item.
Give the value in % but do not write % after it.

Prompt: # query: residual activity of entry COc1cc2ncnc(Nc3cccc(Cl)c3)c2cc1OC
Completion: 103

Prompt: # query: residual activity of entry Nc1nccc(-c2c(-c3ccc(F)cc3)ncn2C2CCNCC2)n1
Completion: 129

Prompt: # query: residual activity of entry O=C(c1cc2cc(O)ccc2[nH]1)c1cc2cc(O)ccc2[nH]1
Completion: 120

Prompt: # query: residual activity of entry Cn1c2ccccc2c2c3c(c4c5ccccc5n(CCC#N)c4c21)CNC3=O
Completion: 121

Prompt: # query: residual activity of entry COc1ccc(CNC(=O)Nc2ncc([N+](=O)[O-])s2)cc1
Completion: 100

Prompt: # query: residual activity of entry Fc1ccc(-c2nc3n(c2-c2ccncc2)CCS3)cc1
Completion: 87

Prompt: # query: residual activity of entry O=C(CCCc1ccc(-c2ccccc2F)cc1)Nc1ccc(O)cc1
Completion: 108

Prompt: # query: residual activity of entry N#Cc1c(NC(=O)c2cccc3ccccc23)sc2c1CCCC2
Completion: 100

Prompt: # query: residual activity of entry COc1ccc(-c2cnc3c(-c4ccsc4)cnn3c2)cc1
Completion: 145

Prompt: # query: residual activity of entry CC(C)[C@H](CO)Nc1nc(Nc2cc(N)cc(Cl)c2)c2ncn(C(C)C)c2n1
Completion: 87

Prompt: # query: residual activity of entry CN(C)S(=O)(=O)c1ccc2c(c1)/C(=C/c1cc3c([nH]1)CCCC3)C(=O)N2
Completion: 113

Prompt: # query: residual activity of entry CC(C)(C)n1nc(Cc2cccc3ccccc23)c2c(N)ncnc21
Completion: 108

Prompt: # query: residual activity of entry CN([C@@H](Cc1ccc(OS(=O)(=O)c2cccc3cnccc23)cc1)C(=O)N1CCN(c2ccccc2)CC1)S(=O)(=O)c1cccc2cnccc12
Completion: 135

Prompt: # query: residual activity of entry COc1ccc(COc2ccc(Cc3cnc(N)nc3N)cc2OC)cc1
Completion: 115

Prompt: # query: residual activity of entry Nc1ncnc2c1c(-c1ccc(Oc3ccccc3)cc1)cn2C1CCCC1
Completion: 127

Prompt: # query: residual activity of entry O=C1Cc2c([nH]c3ccc(Br)cc23)-c2ccccc2N1
Completion: 97

Prompt: # query: residual activity of entry O=C1Nc2ccccc2/C1=C\c1c(Cl)[nH]c2ccccc12
Completion: 119

Prompt: # query: residual activity of entry CCCC(=O)Oc1ccc2[nH]c(C(=O)c3cc4ccccc4[nH]3)cc2c1
Completion: 132

Prompt: # query: residual activity of entry COc1cc2nccc(Oc3ccc(NC(=O)Nc4cc(C)on4)c(Cl)c3)c2cc1OC
Completion: 100

###

# Tgt: Serine/threonine-protein kinase mTOR (Homo sapiens) (UniProt P42345)
# Condition Notes: at 10 µM
Measurement Name: residual activity (%)
Give the value in % but do not write % after it.

Prompt: # query: residual activity of entry N#C/C(=C1/Nc2ccccc2S1)c1ccnc(NCCc2cccnc2)n1
Completion: 62

Prompt: # query: residual activity of entry Cn1c2ccccc2c2c3c(c4c5ccccc5n(CCC#N)c4c21)CNC3=O
Completion: 112

Prompt: # query: residual activity of entry CC(C)[C@H](CO)Nc1nc(Nc2cc(N)cc(Cl)c2)c2ncn(C(C)C)c2n1
Completion: 83

Prompt: # query: residual activity of entry CC(C)c1nn(-c2c(Cl)cccc2Cl)c2nc(Cc3ccc(OCCO)cc3)[nH]c(=O)c12
Completion: 90

Prompt: # query: residual activity of entry Nc1ncnc2c1c(-c1ccc(Oc3ccccc3)cc1)cn2C1CCCC1
Completion: 104

Prompt: # query: residual activity of entry O=C(O)/C=C/c1cc(Br)c(Br)c(Br)c1Br
Completion: 70

Prompt: # query: residual activity of entry Oc1cccc(-c2nc(N3CCOCC3)c3oc4ncccc4c3n2)c1
Completion: 35

Prompt: # query: residual activity of entry CCCC(=O)Oc1ccc2[nH]c(C(=O)c3cc4ccccc4[nH]3)cc2c1
Completion: 95

Prompt: # query: residual activity of entry NC(=O)c1cccc(-c2cc(Nc3ccc(OC(F)(F)F)cc3)ncn2)c1
Completion: 92

Prompt: # query: residual activity of entry CC(C)(C)n1nc(Cc2cccc3ccccc23)c2c(N)ncnc21
Completion: 97

###

# Tgt: Tyrosine-protein kinase Lyn (Homo sapiens)
# Condition Notes: at 10 µM
Measurement Name: residual activity (%)
Give the value in % but do not write % after it.

Prompt: Observed residual activity on Tyrosine-protein kinase Lyn (Homo sapiens) for O=C(Nc1ccc(Cl)cc1)c1ccccc1NCc1ccncc1 , please.
Completion: 2

Prompt: Observed residual activity on Tyrosine-protein kinase Lyn (Homo sapiens) for CN([C@@H](Cc1ccc(OS(=O)(=O)c2cccc3cnccc23)cc1)C(=O)N1CCN(c2ccccc2)CC1)S(=O)(=O)c1cccc2cnccc12 , please.
Completion: 59

Prompt: Observed residual activity on Tyrosine-protein kinase Lyn (Homo sapiens) for CCOc1nc(NC(=O)Cc2cc(OC)ccc2OC)cc(N)c1C#N , please.
Completion: 59

Prompt: Observed residual activity on Tyrosine-protein kinase Lyn (Homo sapiens) for COc1ccc(-c2cnc3c(-c4ccsc4)cnn3c2)cc1 , please.
Completion: 95

Prompt: Observed residual activity on Tyrosine-protein kinase Lyn (Homo sapiens) for N#Cc1c(NC(=O)c2cccc3ccccc23)sc2c1CCCC2 , please.
Completion: 62

Prompt: Observed residual activity on Tyrosine-protein kinase Lyn (Homo sapiens) for O=C1Cc2c([nH]c3ccc(Br)cc23)-c2ccccc2N1 , please.
Completion: 1

Prompt: Observed residual activity on Tyrosine-protein kinase Lyn (Homo sapiens) for Nc1ncnc2[nH]nc(Nc3ccc(F)cc3)c12 , please.
Completion: 3

Prompt: Observed residual activity on Tyrosine-protein kinase Lyn (Homo sapiens) for O=C(c1ccccc1)c1ccc(N2CCOCC2)cc1O , please.
Completion: 72

Prompt: Observed residual activity on Tyrosine-protein kinase Lyn (Homo sapiens) for O=C(NC(NC(=S)Nc1ccc(F)c([N+](=O)[O-])c1)C(Cl)(Cl)Cl)C(c1ccccc1)c1ccccc1 (stereo unspecified) , please.
Completion: 66

Prompt: Observed residual activity on Tyrosine-protein kinase Lyn (Homo sapiens) for c1ccc(-c2cnc(Nc3ccc(OCCN4CCCC4)cc3)s2)cc1 , please.
Completion: 4

Prompt: Observed residual activity on Tyrosine-protein kinase Lyn (Homo sapiens) for Nc1n[nH]c2nc3ccccc3nc12 , please.
Completion: 67

###

Provide the reported residual activity of each item.
# Tgt: Cyclin-dependent kinase 2/cyclin E (Homo sapiens) (UniProt P24864+P24941+O96020)
# Condition Notes: at 10 µM
Give the value in % but do not write % after it.

Prompt: Observed residual activity on Cyclin-dependent kinase 2/cyclin E (Homo sapiens) (UniProt P24864+P24941+O96020) for O=C(NC(NC(=S)Nc1ccc(F)c([N+](=O)[O-])c1)C(Cl)(Cl)Cl)C(c1ccccc1)c1ccccc1 (stereo unspecified) , please.
Completion: 77

Prompt: Observed residual activity on Cyclin-dependent kinase 2/cyclin E (Homo sapiens) (UniProt P24864+P24941+O96020) for Cn1sc(=O)n(Cc2ccccc2)c1=O , please.
Completion: 95

Prompt: Observed residual activity on Cyclin-dependent kinase 2/cyclin E (Homo sapiens) (UniProt P24864+P24941+O96020) for O=C1NC(=O)c2c1c1c3ccccc3[nH]c1n1cncc21 , please.
Completion: 35

Prompt: Observed residual activity on Cyclin-dependent kinase 2/cyclin E (Homo sapiens) (UniProt P24864+P24941+O96020) for N#Cc1c(NC(=O)c2cccc3ccccc23)sc2c1CCCC2 , please.
Completion: 94

Prompt: Observed residual activity on Cyclin-dependent kinase 2/cyclin E (Homo sapiens) (UniProt P24864+P24941+O96020) for NC(=O)Nc1sc(-c2ccc(F)cc2)cc1C(N)=O , please.
Completion: 26

Prompt: Observed residual activity on Cyclin-dependent kinase 2/cyclin E (Homo sapiens) (UniProt P24864+P24941+O96020) for Nc1nc(Nc2ccc(S(N)(=O)=O)cc2)nn1C(=O)c1c(F)cccc1F , please.
Completion: -1

###

# Tgt: Serine/threonine-protein kinase WNK3 (Homo sapiens) (UniProt Q9BYP7)
# Sequence (Q9BYP7 whole entry): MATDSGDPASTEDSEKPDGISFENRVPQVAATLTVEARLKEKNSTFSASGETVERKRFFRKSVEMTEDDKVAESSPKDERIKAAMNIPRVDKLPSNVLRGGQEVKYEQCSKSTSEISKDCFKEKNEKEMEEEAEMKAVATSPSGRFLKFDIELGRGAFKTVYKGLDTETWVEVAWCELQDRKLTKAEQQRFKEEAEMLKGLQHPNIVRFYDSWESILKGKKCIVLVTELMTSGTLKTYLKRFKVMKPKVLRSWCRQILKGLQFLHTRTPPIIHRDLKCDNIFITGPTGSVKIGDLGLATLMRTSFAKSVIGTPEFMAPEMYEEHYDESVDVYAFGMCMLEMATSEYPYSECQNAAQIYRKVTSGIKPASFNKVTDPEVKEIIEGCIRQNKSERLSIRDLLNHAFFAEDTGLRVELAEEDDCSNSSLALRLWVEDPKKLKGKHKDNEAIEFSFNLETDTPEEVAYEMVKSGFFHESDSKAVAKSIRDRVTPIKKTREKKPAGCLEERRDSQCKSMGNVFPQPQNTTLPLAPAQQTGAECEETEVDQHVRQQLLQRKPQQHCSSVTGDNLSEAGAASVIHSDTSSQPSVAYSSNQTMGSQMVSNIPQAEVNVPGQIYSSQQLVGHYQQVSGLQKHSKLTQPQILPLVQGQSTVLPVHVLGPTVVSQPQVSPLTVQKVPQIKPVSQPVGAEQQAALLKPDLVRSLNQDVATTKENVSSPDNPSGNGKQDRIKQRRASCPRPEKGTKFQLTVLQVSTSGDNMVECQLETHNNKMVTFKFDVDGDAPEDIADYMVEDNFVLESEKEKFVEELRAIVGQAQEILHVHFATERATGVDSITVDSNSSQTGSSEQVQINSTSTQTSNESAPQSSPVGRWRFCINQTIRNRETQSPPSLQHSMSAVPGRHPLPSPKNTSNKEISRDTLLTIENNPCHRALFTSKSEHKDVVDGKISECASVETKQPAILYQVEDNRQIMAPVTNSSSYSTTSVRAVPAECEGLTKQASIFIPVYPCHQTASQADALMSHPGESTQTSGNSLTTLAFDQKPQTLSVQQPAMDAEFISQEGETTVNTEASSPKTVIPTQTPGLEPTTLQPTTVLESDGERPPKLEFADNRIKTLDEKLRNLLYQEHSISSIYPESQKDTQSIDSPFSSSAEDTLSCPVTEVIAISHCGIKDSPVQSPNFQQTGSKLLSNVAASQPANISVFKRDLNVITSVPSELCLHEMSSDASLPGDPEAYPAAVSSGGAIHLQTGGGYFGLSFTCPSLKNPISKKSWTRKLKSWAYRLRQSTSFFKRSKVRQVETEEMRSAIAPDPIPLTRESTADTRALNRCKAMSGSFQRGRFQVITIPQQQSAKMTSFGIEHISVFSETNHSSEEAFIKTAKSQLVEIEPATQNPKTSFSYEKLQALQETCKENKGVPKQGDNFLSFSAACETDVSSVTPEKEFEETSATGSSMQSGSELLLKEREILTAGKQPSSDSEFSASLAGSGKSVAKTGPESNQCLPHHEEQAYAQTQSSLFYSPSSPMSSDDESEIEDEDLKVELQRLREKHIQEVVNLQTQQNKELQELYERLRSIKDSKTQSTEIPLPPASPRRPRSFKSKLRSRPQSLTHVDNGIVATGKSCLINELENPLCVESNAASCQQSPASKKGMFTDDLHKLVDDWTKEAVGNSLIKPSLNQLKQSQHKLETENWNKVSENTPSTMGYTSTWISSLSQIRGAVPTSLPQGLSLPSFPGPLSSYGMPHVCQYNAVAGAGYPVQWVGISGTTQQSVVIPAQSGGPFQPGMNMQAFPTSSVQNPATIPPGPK
# Condition Notes: at 1 µM
# Description: Millipore: Percentage of residual kinase activity of WNK3 at 1uM relative to control. Control inhibitor: Phosphoric acid* at 0.3uM. Buffer: 8 mM MOPS pH 7.0, 0.2 mM EDTA
Measurement Name: residual activity (%)
Give the value in % but do not write % after it.

Prompt: # query: residual activity of entry O=C1NC(=O)C(c2cn(CCCO)c3ncccc23)=C1c1cnccn1
Completion: 99

Prompt: # query: residual activity of entry N#C/C(=C1/Nc2ccccc2S1)c1ccnc(NCCc2cccnc2)n1
Completion: 73

Prompt: # query: residual activity of entry Nc1nc(Nc2ccc(S(N)(=O)=O)cc2)nn1C(=O)c1c(F)cccc1F
Completion: 100

Prompt: # query: residual activity of entry NC(=O)c1ccc(-c2nc(-c3ccc4c(c3)OCCO4)c(-c3ccccn3)[nH]2)cc1
Completion: 123

Prompt: # query: residual activity of entry CCOC(=O)c1c(C)[nH]c(/C=C2\C(=O)Nc3ccccc32)c1C
Completion: 93

Prompt: # query: residual activity of entry O=c1cc(N2CCNCC2)oc2c(-c3ccccc3)cccc12
Completion: 133

Prompt: # query: residual activity of entry CC(C)(C)n1nc(Cc2cccc3ccccc23)c2c(N)ncnc21
Completion: 95

Prompt: # query: residual activity of entry O=C1NC(=O)c2c1c1c3ccccc3[nH]c1n1cncc21
Completion: 74
